The next entries give measured log10 IC50 for UniProt Q06187.
Sequence (Q06187 whole entry): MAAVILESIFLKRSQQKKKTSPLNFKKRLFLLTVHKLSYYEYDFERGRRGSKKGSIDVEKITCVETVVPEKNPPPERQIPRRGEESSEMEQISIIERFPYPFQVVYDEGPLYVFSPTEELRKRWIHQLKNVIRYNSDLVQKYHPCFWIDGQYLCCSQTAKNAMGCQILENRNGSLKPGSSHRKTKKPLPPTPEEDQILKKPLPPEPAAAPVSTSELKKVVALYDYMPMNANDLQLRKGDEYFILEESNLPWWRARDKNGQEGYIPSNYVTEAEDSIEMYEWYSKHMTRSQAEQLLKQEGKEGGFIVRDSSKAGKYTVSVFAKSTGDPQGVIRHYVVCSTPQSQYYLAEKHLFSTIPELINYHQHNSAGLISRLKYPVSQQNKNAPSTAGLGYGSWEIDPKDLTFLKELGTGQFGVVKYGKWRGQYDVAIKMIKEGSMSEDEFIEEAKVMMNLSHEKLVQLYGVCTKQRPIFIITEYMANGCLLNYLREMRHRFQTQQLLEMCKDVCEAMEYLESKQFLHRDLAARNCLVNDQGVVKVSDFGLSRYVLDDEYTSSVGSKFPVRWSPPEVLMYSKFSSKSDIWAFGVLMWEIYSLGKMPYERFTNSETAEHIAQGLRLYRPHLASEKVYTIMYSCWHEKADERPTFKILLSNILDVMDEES
Could you please treat all values as log10 of IC50 in nM?

Before answering, review these 5 worked examples.
C=CC(=O)N1CC(Nc2cncc(-c3cnc(Oc4ccc(Cl)cc4)nc3)n2)C1 [Example 41] : 1.99
C#Cc1cccc(Oc2ncc(-c3cncc(NC4CN(C(=O)C=C)C4)c3)cn2)c1 [Example 14] : 1.25
C=CC(=O)N1CCC(Nc2cncc(-c3cnc(Oc4cccc(OC(F)F)c4)nc3)n2)CC1 [Example 38] : 0.84
C=CC(=O)N1CCC(Nc2cncc(-c3cnc(Nc4cccc(C)n4)nc3)c2)CC1 [Example 20] : 1.23
C=CC(=O)N1CCC(Nc2cncc(-c3cnc(Nc4cccc(Cl)c4)nc3)c2)CC1C (stereo not shown) [Example 47] : 0.83

QUERY: Form: Entry = C=CC(=O)N1CC[C@H](Nc2cncc(-c3cnc(Nc4cccc(OC(F)(F)F)c4)nc3)n2)C1 [Example 33] | System = UniProt Q06187 | log10 IC50 = ____
RESULT: 0.97

QUERY: Form: Entry = C=CC(=O)N1CC(Nc2cncc(-c3cnc(Oc4cccc(Cl)c4)nc3)n2)C1 [Example 31] | System = UniProt Q06187 | log10 IC50 = ____
RESULT: 0.98

QUERY: Form: Entry = C=CC(=O)N1CC(Nc2cncc(-c3cnc(Oc4cc(F)cc(F)c4)nc3)n2)C1 [Example 30] | System = UniProt Q06187 | log10 IC50 = ____
RESULT: 1.64

QUERY: Form: Entry = C=CC(=O)N1CCC(Nc2cncc(-c3cnc(Oc4cccc(Cl)c4)nc3)c2)CC1 [Example 1] | System = UniProt Q06187 | log10 IC50 = ____
RESULT: 1.40

QUERY: Form: Entry = C=CC(=O)N1CC(Nc2cncc(-c3cnc(Oc4ccc(F)c(OC(F)F)c4)nc3)c2)C1 [Example 9] | System = UniProt Q06187 | log10 IC50 = ____
RESULT: 1.78

QUERY: Form: Entry = C=CC(=O)N1CC(Nc2cncc(-c3cnc(Oc4cccc(F)c4)nc3)c2)C1 [Example 11] | System = UniProt Q06187 | log10 IC50 = ____
RESULT: 1.26

QUERY: Form: Entry = CN(C)C/C=C/C(=O)N1CCC(Nc2cncc(-c3cnc(Nc4cccc(Cl)c4)nc3)c2)CC1 [Example 23] | System = UniProt Q06187 | log10 IC50 = ____
RESULT: 1.38

QUERY: Form: Entry = C=CC(=O)N1CC(Nc2cncc(-c3cnc(Oc4cccc(OC(F)F)c4)nc3)c2)C1 [Example 4] | System = UniProt Q06187 | log10 IC50 = ____
RESULT: 1.00

QUERY: Form: Entry = C=CC(=O)N1CC(Nc2cncc(-c3cnc(Oc4ccccc4)nc3)n2)C1 [Example 28] | System = UniProt Q06187 | log10 IC50 = ____
RESULT: 1.63

QUERY: Form: Entry = C=CC(=O)N1CC[C@H](Nc2cncc(-c3cnc(Nc4cccc(Cl)c4)nc3)c2)C1 [Example 15] | System = UniProt Q06187 | log10 IC50 = ____
RESULT: 0.78

QUERY: Form: Entry = C=CC(=O)N1CC(Nc2cncc(-c3cnc(Oc4cccc(OC(F)(F)F)c4)nc3)n2)C1 [Example 27] | System = UniProt Q06187 | log10 IC50 = ____
RESULT: 1.53
